tested on: Staphylococcus epidermidis; assay: Antibacterial activity against methicillin-resistant Staphylococcus epidermidis 09-3 after 18 to 24 hrs by twofold serial dilution method; format: functional
observedProperty: MIC (µg/mL)
Only the number, expressed in µg/mL, is required.

Worked cases, MIC given:
CCO/N=C(/N)C1CN(c2c(F)cc3c(=O)c(C(=O)O)cn(C4CC4)c3c2OC)C/C1=N\OC (stereo not drawn) : 0.125
CO/N=C1\CN(c2c(F)cc3c(=O)c(C(=O)O)cn(C4CC4)c3c2OC)CC1/C(N)=N\OC (stereo not drawn) : 0.25
C[C@H]1COc2c(N3CCN(C)CC3)c(F)cc3c(=O)c(C(=O)O)cn1c23.C[C@H]1COc2c(N3CCN(C)CC3)c(F)cc3c(=O)c(C(=O)O)cn1c23.O : 0.25
CCO/N=C1\CN(c2nc3c(cc2F)c(=O)c(C(=O)O)cn3C2CC2)CC1/C(N)=N\O (stereo not drawn) : 0.25
CCO/N=C1\CN(c2c(F)cc3c(=O)c(C(=O)O)cn(CCF)c3c2F)CC1/C(N)=N\OCC (stereo not drawn) : 4
CO/N=C1\CN(c2c(F)cc3c(=O)c(C(=O)O)cn(CCF)c3c2F)CC1/C(N)=N\O (stereo not drawn) : 1
CO/N=C1\CN(c2c(F)cc3c(=O)c(C(=O)O)cn4c3c2OC[C@@H]4C)CC1/C(N)=N\O (stereo partly drawn) : 0.25

Value of MIC reported for the molecule CO/N=C1\CN(c2nc3c(cc2F)c(=O)c(C(=O)O)cn3-c2ccc(F)cc2F)CC1/C(N)=N\OC (stereo not drawn) is 0.25
